experiment: amyloid nucleation score (Sup35N fusion, yeast selection) (log enrichment); library NNK3; higher = more nucleation; inactive = no reads after selection;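 also: zero at mode of non-aggregating sequences after 7 days selection at 30°C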
Would you mind telling me the reported amyloid nucleation score of each entry?
Please reply with the value in numeric form only.

Entry CVTSVVFRFRQHGYTRKGMA , amyloid nucleation score reported as 1.27

Entry WCFYFEQDMFHAPY , amyloid nucleation score reported as -0.106

Entry LTRDVCFN , amyloid nucleation score reported as 0.312

Entry SCSWHFIFCCNGLHMSVKKR , amyloid nucleation score reported as 1.66

###

test: amyloid nucleation score (Sup35N fusion, yeast selection) (log enrichment); library NNK1; higher = more nucleation; inactive = no reads after selection
recorded_endpoint: amyloid nucleation score

ordered_residues: QNPFSTSHIVRSLLCLNDVI
recorded_endpoint: amyloid nucleation score
result: inactive

ordered_residues: FVTNTWRVTVCPSQLFGILR
recorded_endpoint: amyloid nucleation score
result: inactive

ordered_residues: HSSWEYSSYGVPSNMEKDWV
recorded_endpoint: amyloid nucleation score
result: inactive

###

experiment: amyloid nucleation score (Sup35N fusion, yeast selection) (log enrichment); library NNK3; higher = more nucleation; inactive = no reads after selection
recorded_endpoint: amyloid nucleation score

ordered_residues: CPFPRLSICVACNEYDNQLS
result: inactive
//
ordered_residues: FSLRLPYFA
result: inactive
//
ordered_residues: FRLRYRYFCRGRGCMDDLEY
result: -0.288
//
ordered_residues: FMEHLLYE
result: inactive

###

assay: amyloid nucleation score (Sup35N fusion, yeast selection) (log enrichment); library NNK2; higher = more nucleation; inactive = no reads after selection
Binary call on amyloid nucleation score: Y from -0.2 upward, N beneath that.

Query: Tell me whether amyloid nucleation score is at least -0.2 here: KCMRFIL
Reply: Y

Query: Tell me whether amyloid nucleation score is at least -0.2 here: WELHMI
Reply: N

Query: Tell me whether amyloid nucleation score is at least -0.2 here: RNTYRRGGLPFVAYNRTSVG
Reply: Y

Query: Tell me whether amyloid nucleation score is at least -0.2 here: KRAMPLSLTSRRLWISSGTG
Reply: N

Query: Tell me whether amyloid nucleation score is at least -0.2 here: YIRCYRNV
Reply: N

Query: Tell me whether amyloid nucleation score is at least -0.2 here: TWRLACRFLL
Reply: Y

Query: Tell me whether amyloid nucleation score is at least -0.2 here: MCPDKARGTMVCTERTPRLM
Reply: Y

Query: Tell me whether amyloid nucleation score is at least -0.2 here: VVFRIVNRACVMYGVTGGND
Reply: N

Query: Tell me whether amyloid nucleation score is at least -0.2 here: VVDSTVGRADGTCGGVVGFA
Reply: Y

Query: Tell me whether amyloid nucleation score is at least -0.2 here: SRANMQSRCRLNNQSVYGKL
Reply: Y

Query: Tell me whether amyloid nucleation score is at least -0.2 here: ARVNYLRTCKYASRNSFHRS
Reply: N

Query: Tell me whether amyloid nucleation score is at least -0.2 here: QLNDWSYMVKFSAV
Reply: N

Query: Tell me whether amyloid nucleation score is at least -0.2 here: VTVRAQY
Reply: N

Query: Tell me whether amyloid nucleation score is at least -0.2 here: MVFKRPHVWFDTTTFEFGMV
Reply: Y

Query: Tell me whether amyloid nucleation score is at least -0.2 here: TATGTIECMVYPLTFSSLSP
Reply: Y

Query: Tell me whether amyloid nucleation score is at least -0.2 here: VLESYFDTYM
Reply: N

Query: Tell me whether amyloid nucleation score is at least -0.2 here: VISHRKPFE
Reply: N

Query: Tell me whether amyloid nucleation score is at least -0.2 here: NGRRFLSYSVMLRDLRYRSC
Reply: Y

Query: Tell me whether amyloid nucleation score is at least -0.2 here: TSGQNESDA
Reply: Y

Query: Tell me whether amyloid nucleation score is at least -0.2 here: FLSINISISRVLLSDCTS
Reply: Y
